These data points were gathered from PubChem BioAssay.

assayed-target: Fibroblast growth factor 2 (Homo sapiens)
assay-protocol: FGF2 binders on small-molecule microarrays, primary screen, biochemical, small-molecule microarray, 635/667 nm fluorescence (AID 1133)
applied-conditions: small-molecule microarray binding, FGF2, fluorescence 635/667; higher = more signal
measure: composite z-score

                                    molecule   result
 0  Cc1cc2c(nc1C)CCCCN2CC(O)CN1CCCc2nc(-c3ccc(Br)cc3)ccc21 (centres undefined)    0.709
 1  CC(=O)OC[C@H]1O[C@H](CC=NOC(C)CN2CCCc3nc(C)c(C)cc32)C=C[C@@H]1OC(C)=O (some centres undefined)    0.684
 2  CCOC(=O)[C@H](CC(C)C)NC(=O)CCC1CC(OC(=O)NCc2ccc3c(c2)OCO3)CC2(CCCC(COC(=O)NCCOc3ccccc3)O2)O1 (some centres undefined)    0.846
 3  O=C1C[C@@H](O)[C@@H](O)[C@@H]2[C@@H]3C(=O)N(C4CCCCC4)C(=O)[C@@H]3CC[C@@H]12    0.134
 4  O=C1C=C[C@@H](O)[C@@H]2[C@@H]3C(=O)N(Cc4ccc5c(c4)OCO5)C(=O)[C@@H]3CC[C@@H]12    0.569
 5  COC(=O)[C@@H]1CC[C@H](C)[C@@H](c2ccc(Br)cc2)N1    -0.21
 6     CN1CCc2nc(-c3ccccc3)c(-c3ccccc3)cc2C1    0.325
 7  COC(=O)[C@H](C)NC(=O)CCC1CC(OC(=O)NCc2cccc3ccccc23)CC2(CCCC(COC(=O)NCc3cccc(C(F)(F)F)c3)O2)O1 (some centres undefined)    0.657
 8  COC(OC)[C@@H](C)[C@H](OC)[C@@H](C)[C@H](OC)c1ccccc1    0.142
 9  CC(C)=NOC[C@@H](O)[C@H]1O[C@@H]2OC(C)(C)O[C@@H]2[C@H]1O     0.57
10  COC(=O)CC=C[C@@H](C)[C@@H](C=NOC(C)CN1CCCCc2nc(C)c(C)cc21)NS(=O)(=O)c1ccc(C)cc1 (some centres undefined)    0.601
11  COc1ccc(COC(=O)NN=C2C[C@@H](O)[C@@H](O)[C@@H]3[C@@H]4C(=O)N(c5cccc(Oc6ccccc6)c5)C(=O)[C@@H]4CC[C@H]23)cc1   -0.603
12  CC(CCN1CCCc2nc(C)c(C)cc21)=NOC[C@@H](C)[C@H](OCc1ccccc1)C(C)C   -0.165
13  CC(C)[C@H](NC(=O)OC(C)(C)C)[C@@H](O)CC(=O)C(C)(C)C    0.516
14  CSCC[C@@H]1NC(=O)CC=C[C@@H](C)COC(=O)[C@H](C)COC1=O     1.95
15  CC(C)(C)N1C(=O)[C@H]2[C@@H]3C(=CC[C@H]2C1=O)C(=O)[C@H]1O[C@H]1[C@H]3O    -0.17
16  COC(=O)CC=C[C@@H](C)[C@@H](C=NOC[C@@H](O)COCc1ccco1)NS(=O)(=O)c1ccc(C)cc1    0.542
17  O=C(NN=C1C[C@@H](O)[C@@H](O)[C@@H]2[C@@H]3C(=O)N(Cc4ccc5c(c4)OCO5)C(=O)[C@@H]3CC[C@@H]12)OCc1ccccc1  -0.0806
18    CC(C)C(=O)N[C@H]1CCCN1C(=O)C=Cc1ccccc1     0.54
19  Cc1ccc(S(=O)(=O)N[C@@H]2COC(=O)CC=C[C@@H](C)[C@H](NS(=O)(=O)c3ccc(C)cc3)COC(=O)[C@H](C)NC(=O)CC=C[C@H]2C)cc1    0.499
20  CCOC(=O)CCN1C(=O)[C@H]2[C@H]3[C@H](O)[C@H](O)CC(=NNC(=O)OCC)[C@H]3CC[C@H]2C1=O    0.406
21  Cc1cc(C)c(-c2cc([C@H](C)ON=C[C@@H](C)[C@H](OCc3ccccc3)C(C)C)on2)c(C)c1    0.133
22  CC(C)[C@@H](OCc1ccccc1)[C@H](C)C=NO[C@@H](C)c1cn([C@H](CO)Cc2ccccc2)nn1    0.346
23  CC(=O)OC[C@H]1O[C@H](CC=NO[C@H](C)c2cn([C@@H]3COC[C@H]3O)nn2)C=C[C@@H]1OC(C)=O    0.396
24  CC(=O)OC[C@H]1O[C@H](CC=NOC(C)CN2CCCCc3nc(C)c(C)cc32)C=C[C@@H]1OC(C)=O (some centres undefined)    0.773
25  COC(=O)[C@H](C)NC(=O)CCC1CC(OC(=O)NCc2ccc3c(c2)OCO3)CC2(CCCC(COC(=O)NCc3ccccc3)O2)O1 (some centres undefined)    0.718
26  COC(=O)[C@H](C)NC(=O)CCC1CC(OC(=O)NCCc2ccc(F)cc2)CC2(CCCC(COC(=O)NCCOc3ccccc3)O2)O1 (some centres undefined)    0.307
27  CC1(C)O[C@H]2OC([C@H](O)CON3C(=O)c4ccccc4C3=O)[C@H](O)[C@H]2O1 (some centres undefined)    0.495
28  COc1ccc(OC[C@@H]2CC3[C@@H](c4ccc(Br)cc4)[C@H](C)CC[C@H]3C(=O)O2)cc1 (some centres undefined)     0.29
